assay: The drug is tested on Providencia rettgeri strain: DSM1131 for biotransformation. The drug concentrations were measured before and after a 12-h incubation by liquid-chromatography-coupled mass spectrometry (LC–MS); type: ADME; set-up: dose 2 uM, timepoint 0 vs 12 hours; details: 2 µM
parameter.measured: Bacterial Biotransformation

Observe how each entry below is paired with its result.
CCCCC(=O)N(Cc1ccc(-c2ccccc2-c2nnn[nH]2)cc1)[C@H](C(=O)O)C(C)C ... Compound NOT metabolized
CC[C@H](C)C(=O)O[C@H]1C[C@@H](C)C=C2C=C[C@H](C)[C@H](CC[C@@H]3C[C@@H](O)CC(=O)O3)[C@H]21 ... Compound metabolized
Cc1cn([C@H]2C[C@H](N=[N+]=[N-])[C@@H](CO)O2)c(=O)[nH]c1=O ... Compound NOT metabolized
CCCN(CCC)CCc1cccc2c1CC(=O)N2 ... Compound NOT metabolized

Q. State, in one line, measured Bacterial Biotransformation of Br.CN1CCC[C@@H]1Cc1c[nH]c2ccc(CCS(=O)(=O)c3ccccc3)cc12 [ELETRIPTAN HYDROBROMIDE]
A. Compound NOT metabolized

Q. State, in one line, measured Bacterial Biotransformation of CS(=O)(=O)O.OC(CCN1CCCCC1)(c1ccccc1)c1ccccc1 [PRIDINOL METHANESULFONATE]
A. Compound NOT metabolized

Q. State, in one line, measured Bacterial Biotransformation of CNNCc1ccc(C(=O)NC(C)C)cc1
A. Compound NOT metabolized

Q. State, in one line, measured Bacterial Biotransformation of CC(C)(Oc1ccc(CCNC(=O)c2ccc(Cl)cc2)cc1)C(=O)O [BEZAFIBRATE]
A. Compound metabolized

Q. State, in one line, measured Bacterial Biotransformation of CN(C)CCc1c[nH]c2ccc(Cn3cncn3)cc12.O=C(O)c1ccccc1 [RIZATRIPTAN BENZOATE]
A. Compound NOT metabolized

* * *

assay: The drug is tested on Bacteroides fragilis strain: ATCC43859 for biotransformation. The drug concentrations were measured before and after a 12-h incubation by liquid-chromatography-coupled mass spectrometry (LC–MS); conditions: 2 µM
parameter.measured: Bacterial Biotransformation

CC(C)c1nc(N(C)S(C)(=O)=O)nc(-c2ccc(F)cc2)c1/C=C/[C@@H](O)C[C@@H](O)CC(=O)[O-].CC(C)c1nc(N(C)S(C)(=O)=O)nc(-c2ccc(F)cc2)c1/C=C/[C@@H](O)C[C@@H](O)CC(=O)[O-].[Ca+2] [ROSUVASTATIN CALCIUM] ... Compound NOT metabolized
COC(=O)[C@H](c1ccccc1Cl)N1CCc2sccc2C1.O=S(=O)(O)O [CLOPIDOGREL BISULFATE] ... Compound metabolized
O=C(CCCN1CCC(O)(c2ccc(Cl)cc2)CC1)c1ccc(F)cc1 [HALOPERIDOL] ... Compound NOT metabolized
C=CCN1CC[C@]23c4c5ccc(O)c4O[C@H]2C(=O)CC[C@@]3(O)[C@H]1C5 [NALOXONE] ... Compound metabolized
CCOc1ccc(NC(C)=O)cc1 [PHENACETIN] ... Compound NOT metabolized

Q. State, in one line, measured Bacterial Biotransformation of CC(C)NCC(O)COc1ccc(COCCOC(C)C)cc1.CC(C)NCC(O)COc1ccc(COCCOC(C)C)cc1.O=C(O)/C=C/C(=O)O (stereo unspecified) [BISOPROLOL FUMARATE]
A. Compound NOT metabolized

Q. State, in one line, measured Bacterial Biotransformation of CCOc1cc(CC(=O)N[C@@H](CC(C)C)c2ccccc2N2CCCCC2)ccc1C(=O)O [REPAGLINIDE]
A. Compound metabolized

Q. State, in one line, measured Bacterial Biotransformation of c1ccc([C@H]2CN3CCSC3=N2)cc1 [LEVAMISOLE]
A. Compound metabolized

Q. State, in one line, measured Bacterial Biotransformation of Nc1nnc(-c2cccc(Cl)c2Cl)c(N)n1 [LAMOTRIGINE]
A. Compound NOT metabolized

Q. State, in one line, measured Bacterial Biotransformation of CC(=O)Nc1ccc(OC(C)=O)cc1 [DIACETAMATE]
A. Compound metabolized

Q. State, in one line, measured Bacterial Biotransformation of CC[C@@H](CO)NC(=O)[C@@H]1C=C2c3cccc4c3c(cn4C)C[C@H]2N(C)C1.O=C(O)/C=C\C(=O)O [METHYSERGIDE MALEATE]
A. Compound NOT metabolized

Q. State, in one line, measured Bacterial Biotransformation of Cc1ccnc2c1NC(=O)c1cccnc1N2C1CC1 [NEVIRAPINE]
A. Compound NOT metabolized

Q. State, in one line, measured Bacterial Biotransformation of CCOC(=O)C1=C[C@]2(CC)CCCN3CCc4c(n1c1ccccc41)[C@@H]32 [VINPOCETINE]
A. Compound NOT metabolized

Q. State, in one line, measured Bacterial Biotransformation of CN(C)C(=O)Oc1cc(OC(=O)N(C)C)cc(C(O)CNC(C)(C)C)c1 (stereo unspecified) [BAMBUTEROL]
A. Compound NOT metabolized

Q. State, in one line, measured Bacterial Biotransformation of COc1ccc(C(CN(C)C)C2(O)CCCCC2)cc1 (stereo unspecified) [VENLAFAXINE]
A. Compound NOT metabolized

Q. State, in one line, measured Bacterial Biotransformation of C[C@@H]1C[C@H]2[C@@H]3CCC4=CC(=O)C=C[C@]4(C)[C@@]3(F)[C@@H](O)C[C@]2(C)[C@@]1(O)C(=O)CO [DEXAMETHASONE]
A. Compound metabolized
